For reference, Ki measured on Purine nucleoside phosphorylase (Homo sapiens):

{"columns": ["molecule", "Ki / nM"],
 "data": [
  ["O=c1[nH]cnc2c(CN3[C@@H](CO)C[C@@H]3CO)c[nH]c12 (racemic)", 280],
  ["O=c1[nH]cnc2c(CN3C[C@H](CO)[C@@H](O)C3)c[nH]c12", 0.0107]
]}

* * *

- experimental target: Purine nucleoside phosphorylase (Bos taurus, UniProt P55859)
- Sequence (P55859 whole entry): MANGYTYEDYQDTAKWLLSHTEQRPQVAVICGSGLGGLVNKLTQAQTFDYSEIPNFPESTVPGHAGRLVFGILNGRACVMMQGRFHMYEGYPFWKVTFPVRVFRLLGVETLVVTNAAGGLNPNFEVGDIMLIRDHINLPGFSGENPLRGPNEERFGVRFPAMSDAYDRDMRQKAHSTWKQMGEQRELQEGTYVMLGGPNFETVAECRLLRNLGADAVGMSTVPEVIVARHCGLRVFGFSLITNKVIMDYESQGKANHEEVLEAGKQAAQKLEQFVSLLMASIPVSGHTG
outcome measure: Ki (pM)

{"columns": ["compound", "uom", "number"],
 "data": [
  ["O=c1[nH]cnc2c(CN3C[C@H](CO)[C@@H](O)C3)c[nH]c12 [ULODESINE]", "pM", 100]
]}
